- Tested on: RBL-2H3 cells
- methodSummary: Inhibition of serotonin liberation from IgE-sensitized, antigen-stimulated RBL-2H3 cells
- Format: cell-based
- testParameters: Rattus norvegicus, [3H]-serotonin release, IgE-sensitized cells stimulated with specific antigen
The entries below come with measured IC50 values attached.
Express it in µM; write the number only.

| molecule | testTarget | unitSpec | IC50 |
| --- | --- | --- | --- |
| Cc1ccc2c(c1C)N(CCCNC(C)(C)c1ccccc1)c1c(Br)csc1[S+]2[O-] (centres unmarked) [Example 7] | RBL-2H3 cells | µM | 2 |

[Q] Param readout= IC50; system= RBL-2H3 cells; entry= Cc1ccc2c(c1C)N(CCCNCN1CCN(Cc3ccccc3)CC1)c1cccnc1[S+]2[O-] (centres unmarked) [Example 26] ; returns value.
[A] 2

---

- Test system: human basophils
- methodSummary: Inhibition of mediator (histamine, peptide leukotriene) liberation from human basophils stimulated with mite antigen
- Format: cell-based
- testParameters: peptide leukotriene, leukocyte fraction, enzyme immunoassay, read-out: IC50 (μM) in mediator liberation from human basophils: leukotriene
Here, each record is paired with measured IC50 data.

| compound | measuredResult |
| --- | --- |
| Cc1ccc2c(c1C)N(CCCNC(C)(C)c1ccccc1)c1c(Br)csc1[S+]2[O-] (centres unmarked) [Example 7] | 3 to 10 µM |

[Q] Which IC50 is reported for this compound? COc1c(CNCCCN2c3cccnc3[S+]([O-])c3ccc(C)c(C)c32)ccc(Cl)c1Cl (centres unmarked) [Example 33]
[A] 3 to 10 µM

[Q] Data request, read-out IC50, for Cc1ccc2c(c1C)N(CCCNCc1cccc(C)c1O)c1cccnc1[S+]2[O-] (centres unmarked) [Example 18]
[A] 10 to 30 µM

[Q] For Cc1ccc2c(c1C)N(CCCNC(C)(C)c1ccccc1)c1ccsc1[S+]2[O-] (centres unmarked) [Example 2] , what is its reported IC50?
[A] 10 to 30 µM

---

- System: RBL-2H3 cells
- methodSummary: Inhibition of serotonin liberation from IgE-sensitized, antigen-stimulated RBL-2H3 cells
- Type: cell-based
- testParameters: Rattus norvegicus, [3H]-serotonin release, IgE-sensitized cells stimulated with specific antigen
observable: IC50 (µM)
Express it in µM; write the number only.

| molecule | IC50 / µM |
| --- | --- |
| COc1ccc(CNCCCN2c3ccsc3[S+]([O-])c3ccc(C)c(C)c32)o1 (stereo not drawn) | 6 |
| CCCOc1ccc2c(n1)[S+]([O-])c1ccc(C)c(C)c1N2CCCNCc1ccccc1 (stereo not drawn) | 2 |
| Cc1ccc2c(c1C)N(CCCCNCc1ccccc1)c1cccnc1[S+]2[O-] (stereo not drawn) | 1 |
| Cc1cnc2c(c1)N(CCCNCc1ccccc1)c1c(ccc(C)c1C)[S+]2[O-] (stereo not drawn) | 3 |
| COc1ccsc1CNCCCN1c2ccsc2[S+]([O-])c2ccc(C)c(C)c21 (stereo not drawn) | 2 |

Moving on to another molecule below.
[Q] Dear colleague, I am looking for the recorded IC50 of the following molecule: Cc1ccc2c(c1C)N(CCCNCc1ccccc1)c1cc(Br)cnc1[S+]2[O-] (stereo not drawn)
[A] 1

---

# maps each entry to its IC50
- System: human basophils
- methodSummary: Inhibition of mediator (histamine, peptide leukotriene) liberation from human basophils stimulated with mite antigen
- Format: cell-based
- testParameters: peptide leukotriene, leukocyte fraction, enzyme immunoassay, read-out: IC50 (μM) in mediator liberation from human basophils: leukotriene

Below: 3 compounds and their reported IC50.
| compound | observable | measuredResult |
| --- | --- | --- |
| Cc1ccc2c(c1C)N(CCCNCc1cccc(F)c1O)c1c(Br)csc1[S+]2[O-] (stereo not shown) [Example 10] | IC50 | 3 to 10 µM |
| COc1ccsc1CNCCCN1c2ccsc2[S+]([O-])c2ccc(C)c(C)c21 (stereo not shown) [Example 6] | IC50 | 10 to 30 µM |
| COc1cccc(CNCCCN2c3cccnc3[S+]([O-])c3ccc(C)c(C)c32)c1O (stereo not shown) [Example 17] | IC50 | 10 to 30 µM |

Now consider a different compound.
[Q] Tell me the measured IC50 of Cc1ccc2c(c1C)N(CCCNCc1ccccc1O)c1cccnc1[S+]2[O-] (stereo not shown) [Example 16] , please.
[A] 10 to 30 µM
